The measured values listed here are drawn from PubChem BioAssay (Tox21).

# protocolSummary: qHTS RealTime-Glo MT Cell Viability Assay in HEK293 cells - 8 hour (AID 1224887); also: nearly all actives have a fitted effect of over 50% in size
# conditionSet: RealTime-Glo luminescence; series mostly up to 76.8 µM
Results filed as inconclusive are left out. Activity calls are given as the source filed them. Calls follow the shape of the dose curve; as a rule, active = well fitted cell-killing curve with a large enough effect in the repeat runs; inconclusive = weak or mixed curves, or effect the other way; inactive = flat fitted curve, though single readings scatter.
Tick one outcome: 1 (yes) = active, 0 (no) = inactive

Examples from the recorded data:
{"columns": ["molecule", "classLabel"],
 "data": [
  ["Cc1oncc1C(=O)Nc1ccc(C(F)(F)F)cc1", "0 (no)"],
  ["C[N+]1(C)CCC(=C(c2ccccc2)c2ccccc2)CC1", "0 (no)"],
  ["Cc1nc2ccccc2s1", "0 (no)"],
  ["OCC1CC=CCC1 (stereo not given)", "0 (no)"]
]}

Give the logged outcome of this assay for the following molecule: `Cc1ccc(S(=O)(=O)NC2CCCCC2)cc1`
0 (no)

// param item: `NC(=O)Nc1ccc(Cl)c(Cl)c1` ; yields the recorded call
0 (no)

Outcome? `Oc1ccc(Nc2ccccc2)cc1`
1 (yes)

Can you look up the reported call for NCC1CCCC(CN)C1 (stereo not given) for me?
0 (no)

Can you look up the reported call for `Cc1ccc(Nc2nccc(N(C)c3ccc4c(C)n(C)nc4c3)n2)cc1S(N)(=O)=O` for me?
1 (yes)

Write down the call the test reported for this molecule. Item: `O=C(CCCCCCCCC#CI)Oc1ccccc1`
0 (no)

GET /call?item= `CC1(C)C(=O)N(Br)C(=O)N1Cl` returns the recorded outcome of this test.
0 (no)

====

# protocolSummary: qHTS assay to identify small molecule antagonists of the retinoic acid receptor (RAR) signaling pathway (AID 1159552; also: nearly all actives have a fitted effect of over 50% in size)
# conditionSet: C3RL4 RARE luciferase reporter, retinol-stimulated, 6 h; series mostly up to 92.4 µM
Results filed as inconclusive are left out. Calls of active or inactive are those of the source. The call rests on the fitted dose curve; in most records, active means well fitted inhibition curve with a large enough effect in the repeat runs; inconclusive means weak or mixed curves, or effect the other way; inactive means no such curve, though single readings can be large or run the other way.
Please reply with one of these outcomes: active, inactive

Worked examples follow.
{"columns": ["compound", "classLabel"],
 "data": [
  ["CC(C)c1nnc2ccc(-c3ocnc3-c3cc(F)ccc3F)cn12", "active"],
  ["CCCCCCOC(=O)C(C)C", "inactive"],
  ["O=C(OCCOCCO)c1ccccc1Nc1cccc(C(F)(F)F)c1", "inactive"],
  ["O=C(NCCCN1CCOCC1)c1ccc(Cl)cc1", "inactive"],
  ["CC1=CC(=O)CC(C)(C)C1(O)/C=C/C(C)=C\\C(=O)O (stereo not drawn)", "inactive"]
]}

# lookup: test call for `C[C@@H]1C[C@H]2[C@@H]3CCC4=CC(=O)C=C[C@]4(C)[C@@]3(F)[C@@H](O)C[C@]2(C)[C@H]1C(=O)CO`
inactive

For `CCN(Cc1cccc(S(=O)(=O)O)c1)c1ccc(C(=C2C=CC(=[N+](CC)Cc3cccc(S(=O)(=O)[O-])c3)C=C2)c2ccccc2)cc1` , what call appears in the results of this test?
inactive

Record lookup: outcome of this test for `CCCCCCCCCCCC(=O)[O][Sn]([CH2]CCC)([CH2]CCC)[O]C(=O)CCCCCCCCCCC` ?
active

====

# protocolSummary: qHTS assay for identifying genotoxic compounds that show differential cytotoxicity against isogenic chicken DT40 cell lines with known DNA damage response pathways - wild type cell line (AID 743012); also: nearly all actives have a fitted effect of over 60% in size
# conditionSet: DT40 wild type chicken cells viability, CellTiter-Glo, 40 h; series mostly up to 68.4 µM
Inconclusive results are not listed. Calls of active or inactive are those of the source. Calls come from the whole dose curve; as a rule, active = well fitted cell-killing curve with a large enough effect in the repeat runs; inconclusive = weak or mixed curves, or effect the other way; inactive = no such curve, though single readings can be large or run the other way.
Response enum: TRUE (active), FALSE (inactive)

These recorded examples may help you get a feel for the data.
{"columns": ["compound", "classLabel"],
 "data": [
  ["CC(=O)Nc1ccc(N)cc1", "FALSE"],
  ["CCC(Cc1ccccc1)(C(=O)c1ccc(N2CCOCC2)cc1)N(C)C (stereo not given)", "TRUE"],
  ["CN1CCN(c2c(F)cc3c(=O)c(C(=O)O)cn4c3c2OCN4C)CC1", "FALSE"],
  ["CCCCCCCC/C=C\\CCCCCCCC(=O)OC(CO)CO", "FALSE"],
  ["C/C=C(\\C)C(=O)OCCC(C)CCC=C(C)C (stereo not given)", "FALSE"],
  ["C[N+]1(C)CCC(=C(c2ccccc2)c2ccccc2)CC1", "FALSE"],
  ["Oc1cc(O)c(Cl)cc1Cl", "FALSE"],
  ["Cc1ccc(S)cc1", "TRUE"],
  ["CC1=C(C=O)C(C)(C)CCC1", "FALSE"]
]}

Switching to the query record.
# outcome recorded in this test, key = O=c1[nH]c2ccc(S(=O)CCN3CCC(Cc4ccc(F)cc4)CC3)cc2o1 (stereo not given)
TRUE
